# Experiment: Sorption of bisphosphonates on hydroxyapatite in SBF
# Type: physicochemical
# Condition Context: 0.7 mM, 30 mg HA, 10 mL SBF, 1, 2 and 48 h
Experimental Endpoint: affinity for HA (sorption), comparison in words

1. Cc1cc(C)nc(NC(P(=O)(O)O)P(=O)(O)O)c1
lower affinity
2. Cc1cccnc1NC(P(=O)(O)O)P(=O)(O)O
lower affinity

----------
# System: Lactobacillus paracasei PCM 3039
# Experiment: Bacterial cell wall hydrophobicity (Congo Red binding)
# Type: cell-based
# Condition Context: 0.2 mg mL^−1 BP, 24 h; Ctrl 39.7 ± 8.0%
So I've got a bunch of compounds here, and I need their Congo Red Binding (cell wall hydrophobicity) values.
Please state the figure in %; there is no need to write the unit.

Req: I'm curious: which Congo Red Binding (cell wall hydrophobicity) was measured for O=P(O)(O)C(Nc1cccc(Cl)n1)P(=O)(O)O [BP9] tested on Lactobacillus paracasei PCM 3039?
Resp: 85.0

Req: I'm curious: which Congo Red Binding (cell wall hydrophobicity) was measured for O=P(O)(O)C(Nc1ccc(Br)cn1)P(=O)(O)O [BP7] tested on Lactobacillus paracasei PCM 3039?
Resp: 45.0

Req: I'm curious: which Congo Red Binding (cell wall hydrophobicity) was measured for O=P(O)(O)C(Nc1cccnc1Cl)P(=O)(O)O [BP10] tested on Lactobacillus paracasei PCM 3039?
Resp: 86.4

Req: I'm curious: which Congo Red Binding (cell wall hydrophobicity) was measured for O=P(O)(O)C(Nc1ccc(Cl)cn1)P(=O)(O)O [BP8] tested on Lactobacillus paracasei PCM 3039?
Resp: 82.1

Req: I'm curious: which Congo Red Binding (cell wall hydrophobicity) was measured for O=P(O)(O)C(Nc1cccc(O)n1)P(=O)(O)O [BP11] tested on Lactobacillus paracasei PCM 3039?
Resp: 35.2

Req: I'm curious: which Congo Red Binding (cell wall hydrophobicity) was measured for Cc1ccc(NC(P(=O)(O)O)P(=O)(O)O)nc1 [BP4] tested on Lactobacillus paracasei PCM 3039?
Resp: 89.3
